Property: Kd; scope: individual binders
- Target Desc: T1, MSNW10, recombinant full length human MSLN (human, UniProt Q13421 296-598)
- T1 construct: also called MSNW10.002; FL-MSLN
- T1 sequence (Q13421 other isoform, or with tags, fused parts or gaps limits assumed): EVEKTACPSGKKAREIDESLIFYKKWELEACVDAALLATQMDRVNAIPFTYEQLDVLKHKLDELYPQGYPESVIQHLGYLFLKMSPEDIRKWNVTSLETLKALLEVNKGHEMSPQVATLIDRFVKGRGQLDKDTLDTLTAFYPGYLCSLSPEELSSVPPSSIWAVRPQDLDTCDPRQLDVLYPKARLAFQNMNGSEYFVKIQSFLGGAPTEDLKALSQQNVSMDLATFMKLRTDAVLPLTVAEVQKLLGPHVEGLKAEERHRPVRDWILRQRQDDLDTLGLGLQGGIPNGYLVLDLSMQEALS
- Method Description: SPR, recombinant full-length human MSLN
Only the number, expressed in nM, is required.

Some solved entries appear below for comparison.
Binder	Measured Property	Result Units	Reported Measurement
MSNB133 (antibody, V domains shown, mAb) VH: QVQLQQSGPGLVKPSQTLSLTCAISGDSVSSNRVAWNWIRQSPSRGLEWLGRTYYRSKWYNDFALSVKSRININADTSKSQFSLQLNSVTPEDTAVYYCARGIVGALDYWGQGTTVTVSS VL: DIVMTQSPLSLPVTPGEPASISCRSSQSLLFSNGYNSLDWYLQKPGQSPQLLIYLGSNRASGVPDRFSGSESGTDFTLKISRVEAEDVGVYYCMQALQTPFTFGPGTKLEIK	Kd	nM	3.7
MSLNB571 (antibody, V domains shown, mAb; also called MSNB571) VH: QVQLQQSGPGLVKPSQTLSLTCAISGDSVSSTSVAWNWIRQSPSGGLEWLGRIYYRSKWYNDYALSVKSRMTINPDTASNQFSLQLNSVTPEDTAVYYCSRGIVGALDYWGQGTLVTVSS VL: DIVMTQTPLSLPVTPGGPASISCRSSQSLMYSNGYNHLDWYLQKPGQSPQFLIHLGSNRVSGVPDRFSGSGSGTDFTLKISRVEAEDVGVYYCMQALRTPYTFGQGTKVDIK	Kd	nM	1.8
MSLNB570 (antibody, V domains shown, mAb; also called MSNB570) VH: QVQLQQSGPGLVKPSQTLSLTCAISGDSVSSTSVAWNWIRQSPSGGLEWLGRTYYRSKWYNDYALSVKSRMTINPDTASNQFSLQLNSVTPEDTAVYYCSRGIVGALDYWGQGTLVTVSS VL: DIVMTQTPLSLPVTPGGPASISCRSSQSLMYSNGYNHLDWYLQKPGQSPQFLIHLGSNRVSGVPDRFSGSGSGTDFTLKISRVEAEDVGVYYCMQALRTPYTFGQGTKVDIK	Kd	nM	3.6
MSNB124 (antibody, V domains shown, mAb) VH: QVQLQQSGPGLVKPSQTLSLTCAISGDSVSSNSVAWHWIRQSPSRGLEWLGRTYHRSKWYNDYAVSVKSRITINPDTSKNQFSLQLNSVTPEDTAVYYCARQILGALDYWGQGTLVTVSS VL: DIVMTQTPLSLPVTPGEPASISCRSSQSLQFGNGNYLDWYLQKPGQSPQLLIYLGSNRASGVPDRFSGSGSGTDFTLKISRVEAEDVGVYYCMQVLQIPFTFGPGTKVDIK	Kd	nM	6.4
MSNB459 (antibody, V domains shown, mAb) VH: EVQLVQSGPGLVKPSQTLSLTCAISGDSVSSNSVAWNWIRQSPSRGLEWLGRTYYRSKWYNDYALSVKSRITINPDTSKNQFSLQLNSVTPEDTAVYYCARGVVGAVDYWGQGTLVTVSS VL: DIVMTQSPLSLPVTPGEPASISCRSSQNLLYSNGYNSLDWYLQKPGQSPQLLIYLGSNRASGVPDRFSGSGSGTDFTLKISRVEAEDVGVYYCMQGLRTPLTFGGGTKVEIK	Kd	nM	3.5

Here's the next entry for you.
Value lookup for Kd; key = MSNB71 (antibody, V domains shown, mAb from Ablexis mouse; also called MSNB71.004) VH: QVQLQQSGPGLVMSSQTLSLTCAISGDSVSSSSVAWNWIRQSPSRGLQWLGRTYFRSKWYYDYAVSVKSRITINPDTSKNQFSLQLNSVTPEDTAVYYCSRGIVGALDYWGQGTLVTVSS VL: DIVMTQSPLSLPVTPGEPASISCRSSQSLLFTNGYDSLDWYLQKPGQSPQLLIYLVSNRASGVPDRFSGSGSGTEFTLKISRVEADDVGVYFCMQGIRTPFTFGPGTKLEIK 0.2
